These measurements were taken from paper PMC7180572.

system: Absidia corymbifera CCM 8077 (Lichtheimia corymbifera); assay: Antifungal microdilution broth method (EUCAST); assay type: cell-based; details: CCM8077, 24 h, read-out: MIC AC
ENDPOINT: MIC

Req: Form field: reported MIC of CCCCNc1cnc(C(=O)Nc2ccc(C)cc2)cn1 [Compound 4b]
Resp: > 125 µM

Req: Form field: reported MIC of CCCCNc1cnc(C(=O)Nc2ccc(O)cc2)cn1 [Compound 3b]
Resp: > 250 µM

Req: Form field: reported MIC of CCCCCNc1cnc(C(=O)Nc2cccc(C(F)(F)F)c2)cn1 [Compound 1c]
Resp: > 125 µM

---

test system: Staphylococcus aureus methicillin resistant ATCC 43300, CCM 4750; experiment: microbe, parasite or virus in culture; format: cell-based; details: ATCC 43300 / CCM 4750 / MRSA, 24 h, read-out: MIC MRSA
ENDPOINT: MIC

Req: Form field: reported MIC of CCCCCCCNc1cnc(C(=O)Nc2ccc(CC)cc2)cn1 [Compound 5e]
Resp: > 500 µM

Req: Form field: reported MIC of CCCCNc1cnc(C(=O)Nc2cccc(O)c2)cn1 [Compound 2b]
Resp: > 500 µM

Req: Form field: reported MIC of CCCCCCCCNc1cnc(C(=O)Nc2ccc(C)cc2)cn1 [Compound 4f]
Resp: > 125 µM

Req: Form field: reported MIC of CCCCCCNc1cnc(C(=O)Nc2ccc(O)cc2)cn1 [Compound 3d]
Resp: > 500 µM

Req: Form field: reported MIC of CCCCNc1cnc(C(=O)Nc2cccc(C(F)(F)F)c2)cn1 [Compound 1b]
Resp: > 500 µM

Req: Form field: reported MIC of CCCCNc1cnc(C(=O)Nc2ccc(C)cc2)cn1 [Compound 4b]
Resp: > 125 µM
